assay notes: soluble on expression in E. coli; label from the status in PepcDB or PDB records
test readout: soluble on expression in E. coli

1) MREWKIIDSTLREGEQFEKANFSTQDKVEIAKALDEFGIEYIEVTTPVASPQSRKDAEVLASLGLKAKVVTHIQCRLDAAKVAVETGVQGIDLLFGTSKYLRAPHGRDIPRIIEEAKEVIAYIREAAPHVEVRFSAEDTFRSEEQDLLAVYEAVAPYVDRVGLADTVGVATPRQVYALVREVRRVVGPRVDIEFHGHNDTGCAIANAYEAIEAGATHVDTTILGIGERNGITPLGGFLARMYTLQPEYVRRKYKLEMLPELDRMVARMVGVEIPFNNYITGETAFSHKAGMHLKAIYINPEAYEPYPPEVFGVKRKLIIASRLTGRHAIKARAEELGLHYGEEELHRVTQHIKALADRGQLTLEELDRILREWITAHHHHHH; soluble
2) EVVVVGYGTQKKVNLTGAVSAVSAEDLASKPVMSTAQALAGLAPGLSVLQTSGRPGQGATVKIRGTGTFSKAGTDPLVLIDGLSGNIDDVDPNDIQSISFLKDAASASIYGNRAANGVILIETKKGA; not soluble
3) MDLNFDLYMNDVVEQARNEIEHAGYQQLTSAEDVDQVLQQKGTSLVMVNSVCGCAGGIARPAAAHALHYDKLPQRLVTVFAGQDKEATQQAREYFEGYAPSSPSFALIKDGKITEMIERHQIEGHDVMDVINQLQALFDKYCEER; not soluble
4) MGSDKIHHHHHHMAKGNKIPLTFHTYQDAATGTEVVRLTPPDVICHRNYFYQKCFFNDGSKLLFGAAFDGPWNYYLLDLKEQNATQLTEGKGDNTFGGFLSPNDDALYYVKNTRNLMRVDLTTLEEKTIYQVPDDWVGYGTWVANSDCTKMVGIEIKKEDWKPLTDWKKFQEFYFTNPCCRLIRVDLVTGEAETILQENQWLGHPIYRPGDDNTVAFCHEGPHDLVDARMWFINEDGTNMRKVKEHAEGESCTHEFWVPDGSAMIYVSYLKDDTNRYIRSIDPVTLEDRQLRVMPPCSHLMSNYDGTLLVGDGSDAPVDVQDDGGYKIENDPFLYVFNLKTGKEHRIAQHNTSWEVLEGDRQVTHPHPSFTPDNKQVLFTSDVDGKPALYLAKVPDSVWN; not soluble
5) MGSDKIHHHHHHVNSDNNPNQISDIKPILKVYIENSGSMDGYMCDGSQLKDAIFDYVSDLSTCVDTTQLYYINNRVIPYHADLEQYIKTMNPITFQKAGGNRSNSDLSKMLSTVLDAMTDSTVSIFVSDCILDLPVSDAQRFLSTCQISIKNTINKGRKNIPLLGVEILKMKSDFNGKYFYQNGGSEVLTNVKRPYYIWIFGNSNVLAKLNTEVLFKGLEKYGYDNIISYCPKTSIPYDITNRALISKTINPIKGDYNATIRADFCTTLQSEDVLLNLDNYSFNNQNLIIENIKPIIATEREYSHFINITIPKGVNIAEDYLILKAPNMPSWVLESNDESGENVKGNLDKTTGIKYLIGGVSDAYKKDNVLTTLKFTVKRK; not soluble
6) MRGSHHHHHHTDPINKDIYQALQQLIPNEKIKVDEPLKRYTYTKTGGNADFYITPTKNEEVQAVVKYAYQNEIPVTYLGNGSNIIIREGGIRGIVISLLSLDHIEVSDDAIIAGSGAAIIDVSRVARDYALTGLEFACGIPGSIGGAVYMNAGAYGGEVKDCIDYALCVNEQGSLIKLTTKELELDYRNSIIQKEHLVVLEAAFTLAPGKMTEIQAKMDDLTERRESKQPLEYPSCGSVFQRPPGHFAGKLIQDSNLQGHRIGGVEVSTKHAGFMVNVDNGTATDYENLIHYVQKTVKEKFGIELNREVRIIGEHPKESLQPSLIS; soluble
7) MTALAVAPASAACAIAAEAIHCAAMDTASAADEALMLAYGAEGDMDAFDALYARHRAGLYRYILRSARNAAQADDIFQETWSRVIDARARYRPQARFTTWLLQIAHNLLVDAHRRQPAPVAPEQAEAALASVPAAEHEQPEARLSEFQQRRRLQLAIERLPDEQRLAMLLRLEHDLDVEEIAQVTGVSRETVKSRLRYATRRIREELSSESAPRSP; not soluble
8) MTLLGTALRPAATRVMLLGSGELGKEVAIECQRLGVEVIAVDRYADAPAMHVAHRSHVINMLDGDALRRVVELEKPHYIVPEIEAIATDMLIQLEEEGLNVVPCARATKLTMNREGIRRLAAEELQLPTSTYRFADSESLFREAVADIGYPCIVKPVMSSSGKGQTFIRSAEQLAQAWKYAQQGGRAGAGRVIVEGVVKFDFEITLLTVSAVDGVHFCAPVGHRQEDGDYRESWQPQQMSPLALERAQEIARKVVLALGGYGLFGVELFVCGDEVIFSEVSPRPHDTGMVTLISQDLSEFALHVRAFLGLPVGGIRQYGPAASAVILPQLTSQNVTFDNVQNAVGADLQIRLFGKPEIDGSRRLGVALATAESVVDAIERAKHAAGQVKVQG; soluble
9) MGSDKIHHHHHHMSKILNTQLIGIFNRLEKQSLEIQMAAQCLIQAIGGEGYVYVKGYDDLQFFESFILHSDERLKSSRKLDAIKDFKEIDSTDRVLLFAPFYNDQVALDIQKLIDLDIDVVLISNKPKTDDFPDHLVHFIDLSTPRPIVYTEDYDKIVQPHAIALNYVYYDIYTQMIEMTRDLEL; not soluble
10) MGSDKIHHHHHHMFHREDFSKALLKKALQPGMRVMDIGCGSGELTRLAADIVGKEGDVVGIDINEQLLWQARHDNGYANVSYQNADLAALSSFETKSFDAIIGRRVLMYQKDPKKVIESLTPLLKPNGFYVFQESDAMCLELAKPSFVNMNKIQSLIWQTVEKEGGHIHIGSQLEQLMLEAGLIVDHFVSENVIQTSQTGTDLSWLLNIMKERIQKYSDLQGLEDVNLQKELEENNDHFIRDCQFGIISHRVDE; not soluble

Sourced from the DeepSol protein solubility set
